Test system: human plasma proteins
EXPERIMENT NOTES: Human plasma protein binding assay (equilibrium dialysis)
Format: in vitro ADME
TEST SETTINGS: 1 μM, 2 hours, 37° C.
ENDPOINT: Hu PPB (% bound)

>>> print(df.to_string())
                                   molecule  numeric_value
0  CC(=O)N1C[C@H](NC(=O)c2nccnc2N2CC(Oc3cc(F)c(F)c(F)c3)C2)C(F)(F)C1 [Example 11b]           84.4
1  [2H]C([2H])([2H])C(=O)N1CC(NC(=O)c2nccnc2N2CC(Oc3ccc(F)c(F)c3)C2)C(F)(F)C1 (racemic)           79.2
2  CC(=O)N1CC(NC(=O)c2nccnc2N2CC(Oc3ccc(F)c(Cl)c3)C2)C(F)(F)C1 (racemic)           92.6

Data credit: patent US12115157B2
